Tested on: SNB-19 CNS
Assay: NCI-60 one-dose screen, 48 h (100 = growth as untreated, 0 = no growth, -100 = all killed)
Conditions: 10 µM unless noted
The panel holds about 83,000 compounds, 20% with a hit somewhere; the sample as a whole holds those more often.

smiles str	growth [%]
C=CCn1c(SCC(=O)Nc2ccc(C(=O)/C=C/c3cccc([N+](=O)[O-])c3)cc2)nnc1-c1c[nH]c2ccccc12	89.4
Nc1ccccc1NC(=O)c1ccc(NC(=O)C/C=C/c2cccnc2)cn1	33.1
CC(C)(C)c1ccc(C(=O)Nc2sc3c(c2C(N)=O)CC/C(=N\O)C3)cc1	26.7
O=C1[C@H]2Cc3c([nH]c4ccccc34)[C@@H](c3c(Cl)cccc3Cl)N2C(=O)CN1C1CCN(CC2CCCCC2)CC1	94.6

* * *

Tested on: UACC-62 melanoma
Test: NCI-60 one-dose screen, 48 h
Details: 10 µM unless noted
The panel holds about 83,000 compounds, 20% with a hit somewhere; the sample as a whole holds those more often. Calls of active or inactive are those of the source. How the source made its calls: active means growth percent below 10; inactive means the rest.
Classes used: 1.0 = active, 0.0 = inactive

compound	category label
NC(N)=Nc1ccc(Oc2cccc(Nc3cccc(C(F)(F)F)c3)c2)cn1	1.0
COc1c(N2CC3CCCNC3C2)c(F)cc2c(=O)c(C(=O)N/N=C/c3ccc(F)cc3)cn(C3CC3)c12 (stereo not given)	0.0
CC(Nc1c(C#N)cnc2ccc(-c3cnc(N)nc3)cc12)c1ccccc1 (stereo not given)	1.0
O=S(=O)(Nc1cccc2ccccc12)c1ccc(-c2cnc(C3CC3)o2)cc1	0.0
NS(=O)(=O)c1ccc(Nc2nc(N/N=C/c3ccc(Cl)cc3)nc(Nc3ccccc3)n2)cc1	0.0
COc1cc(-c2nc3sccn3c2-c2ccnc(S(C)(=O)=O)n2)ccc1F	0.0
COc1ccc(-n2c(SCc3nnc(NC(=O)c4ccc(Br)cc4)s3)nc3cc(OC)c(OC)cc3c2=O)cc1	0.0
O=C1[C@@H]2Cc3c([nH]c4ccccc34)[C@H](c3c(Cl)cccc3Cl)N2C(=O)CN1C1CCN(CC2CCCCC2)CC1	0.0
c1cn2c(ccc3nc(-c4cn[nH]c4)c4c(c32)CCCC4)n1	0.0
O=C(NNc1nc2cc(F)c(F)cc2n2cccc12)c1cnccn1	0.0
C=C1CC[C@@H]2[C@](C)(CO)[C@H](O)CC[C@@]2(C)[C@@H]1C/C(O)=C1\CCOC1=O	0.0
N/C(=N\C(N)=N\c1nc2ccccc2s1)c1cccc(F)c1	0.0
CCn1c(SCC(=O)Nc2cccc(C(=O)/C=C/c3ccc(C)cc3)c2)nc2ccccc2c1=O	0.0
Cc1ccc(C2=NN(C)C(=O)C3(CCCC3)C2)cc1	0.0
CN(C)CCCOc1ccc2c(c1)CN(C(=O)c1cc(C(=O)N3Cc4cccc(F)c4C3)ccc1O)C2	0.0
COc1ccc([C@@H]2[C@@H](O)C(=O)N2c2cc(OC)c(OC)c(OC)c2)cc1F	0.0
O=S(=O)(NCCNc1nccc(-n2cnc3ccccc32)n1)c1ccc(C(F)(F)F)cc1	0.0
Clc1ccc(N/N=c2/oc3ccccc3cc2-c2cc3ccccc3[nH]2)cc1	0.0
NS(=O)(=O)c1ccc(-n2cc(CN3CCNCC3)nn2)cc1	0.0
Cc1ccc2c(c1)C13C(=C2Br)CCCN1C(=O)c1ccccc13 (stereo not given)	0.0

* * *

System: RXF 393 renal
Experiment: NCI-60 one-dose screen, 48 h (100 = growth as untreated, 0 = no growth, -100 = all killed)
Conditions: 10 µM unless noted
The panel holds about 83,000 compounds, 20% with a hit somewhere; the sample as a whole holds those more often.
recorded metric: growth (%)

compound	reported value
N#C/C(=C\c1ccc(-c2ccc(Cl)cc2Cl)o1)c1ccc(F)cc1	67.5
COc1ccc(S(=O)(=O)NCCCNc2nccc(-c3cn(C(C)(C)C)nc3-c3ccc(Cl)c(OC)c3)n2)cc1	-0.734
COc1cc(-c2nn(C(C)(C)C)cc2-c2ccnc(NCCCNS(=O)(=O)c3ccc(C)cc3)n2)ccc1Cl	4.95
CC(C)(C)c1ccc(-c2nnc(-c3nc4ccccc4nc3Cl)o2)cc1	88.4
N#Cc1ccccc1Cn1c2nc(=N)c3ccccc3c-2nc2ccccc21	54.3
Cn1cc(-c2nnc(N)nc2-c2c[nH]c3ccc(F)cc23)c2cc(F)ccc21	98.7
C#C[C@]1(O)CC[C@H]2[C@@H]3CC=C4c5sc(-c6ccc7c(c6)OCO7)nc5CC[C@]4(C)[C@H]3CC[C@@]21C	-49.3
O=S(=O)(NCCNc1nccc(-n2cnc3ccccc32)n1)c1ccc(Cl)cc1	117
CC(C)(C)c1ccc(C(=O)Nc2sc3c(c2C(N)=O)CCC(O)C3)cc1 (centres undefined)	44.5

* * *

Tested on: K-562 leukemia
Experiment: NCI-60 one-dose screen, 48 h (100 = growth as untreated, 0 = no growth, -100 = all killed)
Settings: 10 µM unless noted
About 83,000 compounds went through this panel and 20% of them were active in at least one assay; those are over-represented in the sample as a whole.

compound	target	output unit	growth
Cc1nc2ncc(-c3ccc4ncnc(NCc5ccccc5)c4c3)cc2[nH]1	K-562 leukemia	%	84.2
NC(N)=Nc1ccc(Oc2cccc(Nc3cccc(C(F)(F)F)c3)c2)cn1	K-562 leukemia	%	-47.3
Cn1ccnc1C(=O)/C=C/c1ccc(NC(=O)c2ccc(F)cc2)cc1	K-562 leukemia	%	15
COC(=O)c1[nH]nc2c1C1(C(=O)N(C)c3ccccc31)C(C#N)=C(N)O2 (centres undefined)	K-562 leukemia	%	113
C=C(C=O)[C@@H]1CC[C@]2(C)[C@H](C(=O)C=C3[C@H]4C[C@](C)(C(=O)OC)CC[C@]4(C)CC[C@]32C)[C@@]1(C)CCC#N	K-562 leukemia	%	5.75
Cc1cc(C)cc(C(=O)Nc2cccc(C#Cc3cccc4[nH]nc(N)c34)c2)c1	K-562 leukemia	%	9.8
C#CC(=O)N(c1ccc(OC)cc1OC)C(C(=O)NCC(=O)OCC)c1cccs1 (centres undefined)	K-562 leukemia	%	3.23
CN(C)CCNC(=O)c1ccc(-c2nc3ccc4[nH]ncc4c3c3c2CCC3)cc1	K-562 leukemia	%	11.3
O=C(NCCN1CCCC1)c1ccc(-c2nc3ccc4[nH]ncc4c3c3c2CCCC3)cc1	K-562 leukemia	%	0.479
C/C(=N\O)[C@H]1C[C@]23CC[C@]4(C)[C@H](CC[C@@H]5[C@@]6(C)CC/C(=N/O)C(C)(C)[C@@H]6CC[C@]54C)[C@H]2[C@H](C)C1(C)OC3	K-562 leukemia	%	101
COc1ccc(CCN2C(=O)CSC2=S)cc1	K-562 leukemia	%	51.4
CNC(=O)c1c(NC(=O)c2ccccc2C(F)(F)F)sc2c1CCC(=O)C2	K-562 leukemia	%	12.9
Nc1nc(Nc2ccccc2SSc2ccccc2Nc2nc(N)nc(-c3ccccc3)n2)nc(-c2ccccc2)n1	K-562 leukemia	%	62.6
COc1ccc(-n2c(SCc3nnc(NC(=O)c4ccc(Br)cc4)s3)nc3cc(OC)c(OC)cc3c2=O)cc1	K-562 leukemia	%	100
O=C(O)c1ccc(-n2cc(CNc3cc(F)c(F)c(F)c3)c(-c3cccc(F)c3)n2)cc1	K-562 leukemia	%	84.3
COc1ccc2c(c1)c(CC(=O)[Se]CC#N)c(C)n2C(=O)c1ccc(Cl)cc1	K-562 leukemia	%	14.5
CCNC(=O)N1CCc2cc(OC)c(OCCc3ccc(OC)nc3)cc2C1c1ccc(OC)cc1C (centres undefined)	K-562 leukemia	%	20
O=C(CN1CCN(c2cc(=O)[nH]c3ccc(F)cc23)CC1)Nc1ccc(Cl)cc1	K-562 leukemia	%	78.8
CC(c1ccccc1)N1CSc2nc3ncncc3n2C1 (centres undefined)	K-562 leukemia	%	20.9

* * *

System: SW-620 colon
Test: NCI-60 one-dose screen, 48 h
Settings: 10 µM unless noted
This is part of a sample that, as a whole, favours compounds with a hit. Of some 83,000 tested, about 20% had one in any assay. Calls of active or inactive are those of the source. How the source made its calls: active means growth percent below 10; inactive means the rest.
Classes used: yes = active, no = inactive

molecule	category label
C#C[C@]1(O)CC[C@H]2[C@@H]3CC=C4c5sc(-c6ccc(C)cc6)nc5CC[C@]4(C)[C@H]3CC[C@@]21C	yes
O=C1/C(=C/C=C/c2ccco2)SC(=S)N1c1ccccc1	no
NC(N)=Nc1ccc(Oc2cccc(Nc3cccc(C(F)(F)F)c3)c2)cn1	yes
COc1ccc(/C=C(/C)c2ccc3ccc(OC)cc3[o+]2)c(O)c1	no
COc1ccc2c(c1)c(-c1cc(N)n3nc(-c4cn(C)c5ccc(OC)cc45)cc3n1)cn2C	yes
C=CCn1c(SCC(=O)Nc2ccc(C(=O)/C=C/c3ccc(C)cc3)cc2)nnc1-c1c[nH]c2ccccc12	no
COc1cc2nc(Cl)nc(Nc3cccc(C4=Nc5c(N)nc(N)nc5NC(c5ccc(Cl)cc5)C4)c3)c2cc1OC (centres undefined)	no
NS(=O)(=O)c1ccc(-n2cc(CN3CCNCC3)nn2)cc1	no
CNC(=O)c1c(NC(=O)c2cccc(C(F)(F)F)c2F)sc2c1CCC(=O)C2	no
CC(=O)N1N=C(c2cccc(-n3cccc3)c2)CC1c1cccc(F)c1 (centres undefined)	no
NC(N)=Nc1ccc(Oc2cccc(Oc3ccc(Cl)c(C(F)(F)F)c3)c2)cn1	yes
CCN(CC)c1ccc(NC2=C(Cl)C(=O)c3nc(C)ccc3C2=O)cc1	yes
NS(=O)(=O)c1ccc(Nc2nc(N/N=C/c3c[nH]c4ccccc34)nc(Nc3ccccc3)n2)cc1	no
Cc1ccc(-c2nnc(SCc3ccc(O)c4ncccc34)n2-c2ccccc2)cc1	no
COc1ccc(Cn2cc3c(c2-c2cc(OC)c(OC)c(OC)c2)CCc2c(CN4CCCC4)noc2-3)cc1	no
O=S(=O)(NCCCNc1nccc(-c2[nH]c(-c3ccccc3)nc2-c2ccc(Cl)c(O)c2)n1)c1cccc2ccccc12	no
CCOC(=O)c1c(NC(=O)c2ccccc2C(F)(F)F)sc2c1CCC(=O)C2	no
COC(=O)c1ccc(NC2=C/C(=N/S(=O)(=O)c3ccc(C(=O)O)cc3)c3ccccc3C2=O)cc1	yes
CCc1cccc(NC(=O)CNc2cc(S(=O)(=O)N(C)C)cc(C)c2C)c1	no
